Entries and their measured cell viability follow.
System: SEM cells
Assay: cell viability relative to DMSO control; higher = less cytotoxic
Conditions: RPMI 5 mM glucose + 10% FBS; 48 h; 5.12 µM
# number only, unit % dropped from output

[
  {
    "COMPOUND": "Oc1ccc([C@@H]2Oc3ccc(O)cc3[C@@H]3CCC[C@@H]32)cc1",
    "cell viability, %": 104
  },
  {
    "COMPOUND": "N#Cc1ccnc(N2C(=O)CC[C@H]2C(=O)N(c2cncc(F)c2)[C@H](C(=O)NC2CC(F)(F)C2)c2ccccc2Cl)c1",
    "cell viability, %": 19.1
  }
]

**Q:** Recorded cell viability of `Cc1c(C(=O)c2cccc3ccccc23)c2cccc3c2n1[C@H](CN1CCOCC1)CO3` , please.
**A:** 95.6

**Q:** C[C@@H](N)C1CC[C@@H](CC1)C(=O)NC2=CC=NC=C2 (some centres undefined) , same question.
**A:** 104

**Q:** Repeat with `Cc1ccc([S+](=O)([O-])Nc2cc(Cl)ccc2C(=O)Nc2nc(-c3ccccc3)cs2)cc1`
**A:** 121
